apparent KD of MS2 coat protein values by entry
Tested on: MS2 coat protein
protocol.details: apparent KD of MS2 coat protein; designed switch direction (-1 OFF switch, 1 ON switch): 1; higher = weaker reporter binding
condition.description: Eterna round: R95; input ligand: FMN 200 uM
API: value field is a number in nM; no unit string.

Examples with answers:
The recorded apparent KD of MS2 coat protein for GUAAAACAUGAGGAUCACCCAUGUCAAUGUAGUCGAGGAUAUGGGUAGCUAUGAGGCGUACUAGAAGGCGAAAAGU [Mat - Same State 1 - Mod of JL - D18] (puzzle: Same State 1) is 91.8

// sample GGAGCCGGCACUGAGGAUAUUCAUAUUAAAACAUGAGGAUCACCCAUGUGGGCCAGAAGGCCUUGGGAGAAGGCAGGUCGACUCG [Diqureveri - 3] (puzzle: Same State 2) , its apparent KD of MS2 coat protein was 18.5

Record ACAAGCUUUUCUGUAUUGAAAGGUGGGAUACAUGAGGAUCACCCAUGUUUUUUUGAAAAUAAUAUUCCUCGUCUUAU [JR_SHM208A_Sub091] (puzzle: Sensor for hsa-mir-208a) , field apparent KD of MS2 coat protein: 51.5

Reported apparent KD of MS2 coat protein for GUUAAACAUGAGGAUCACCCAUGUCAAUGUAGUCGAGGAUAUGGGCAGCUAUGAGGCGUACUAGAAGGCGAAGAGU [Mat - Same State 1 - Mod of JL - D12] (puzzle: Same State 1) was 106

// GUAGAUAUAAAGGAGGAUAUUCAAUGAGAGACAUGAGGAUCACCCAUGUGAGAGUGAGAUGAUAGGAAGAAGGCUUAGAGAGAUG [Altered State 2-6 - Jieux - Same State 2] (puzzle: Same State 2) : apparent KD of MS2 coat protein value = 64.1

Others:
Value of measured apparent KD of MS2 coat protein for the entry UUUAAACAUGAGGAUCACCCAUGUCAACAAAGUCGAGGAUAUGGGCAAAUAAAAUAAGAACCAGAAGGCGAAUAAU [salish99_ss1_r3_068] (puzzle: Same State 1) : 49.2

response.value for UCUUGGUUUUUGCUCGUUUUUUGUGUUGAACAUGAGGAUCACCCAUGUAUUGUACAAUCCGAUUUAAUAAUGGUCCG [JMF 50] (puzzle: Sensor for hsa-mir-208a) (field: apparent KD of MS2 coat protein) = 42.5

Entry GGCAAUCGCAUUCGAUUGCCUGAGCAUGUACAUGAGGAUCACCCAUGUCAUGUACAGGCUUUUUGCUCGUACUUAUA (puzzle: Sensor for hsa-mir-208a) — recorded apparent KD of MS2 coat protein = 91.6

Briefly, apparent KD of MS2 coat protein measured for CGGGUACAUGAGGAUCACCCAUGUAGAAGAGAUGCAGGAUAUGUGGGAAAAGGGAAUGUAACAGAAGGGCAAGGAG [JR_SS!_Sub017] (puzzle: Same State 1) : 47.4

Briefly, apparent KD of MS2 coat protein measured for ACGCAGCUGGGUGAGGAUAUCGGUGGUAAAACAUGAGGAUCACCCAUGUCCGAAGCUCGGACCUCCGAGAAGGCGCCCGGCUGCG [Soinraesar Omei Mod 1] (puzzle: Same State 2) : 5.47

Recorded values, source the supplement of paper PMC9170038.
